Quick reference for pKi among some compounds
- ASSAYED_TARGET: kappa-opioid receptor (KOR) (Cavia porcellus)
- Construct: Guinea pig cortices and cerebella were homogenized using 50 mM Tris, pH 7.4; from tissue; host or cells: guinea pig cortex and cerebellum membranes
- TEST: KOR radioligand competition binding assay ([3H]U69,593)
- Set-up: species or system guinea pig
- CONDITION_DETAILS: Kappa screening results, experiment 1; unit inferred; read-out: Ki (Exp 1)
Please report pKi as the negative decimal logarithm of the molar concentration, giving only the number.

// solved cases for pKi follow
>>> quantitative_result("Cc1cc(O)cc(C)c1C[C@H]1CN([C@@H](Cc2ccc(O)cc2)CN2C(=N)NC[C@@H]2Cc2c(C)cc(O)cc2C)C(=N)N1")
6.13
>>> quantitative_result("Cc1cc(O)cc(C)c1C[C@H]1CNC(=N)N1C[C@H](CC(C)C)N1C[C@H](CC(C)C)NC1=N")
6.65
>>> quantitative_result("N=C1NC[C@H](Cc2ccccc2)N1C[C@H](Cc1ccccc1)N1C[C@H](Cc2ccc(O)cc2)NC1=N")
5.27
>>> quantitative_result("Cc1cc(O)cc(C)c1C[C@H]1CN([C@@H](Cc2ccccc2)CN2C(=N)NC[C@@H]2Cc2c(C)cc(O)cc2C)C(=N)N1")
5.92
>>> quantitative_result("CC(C)C[C@H]1CN([C@@H](CC(C)C)CN2C(=N)NC[C@@H]2Cc2ccc(O)cc2)C(=N)N1")
5.37

### Prompt Hi! What's the reported pKi for "Cc1cc(O)cc(C)c1C[C@@H](CN1C(=N)NC[C@@H]1C)N1C[C@H](Cc2ccc(O)cc2)NC1=N" on kappa-opioid receptor (KOR) (Cavia porcellus)?
### Response 6.61

### Prompt Continue with "Cc1cc(O)cc(C)c1C[C@@H](CN1C(=N)NC[C@@H]1C)N1C[C@H](CC(C)C)NC1=N"
### Response 7.05

### Prompt Same question for "C[C@H]1CNC(=N)N1C[C@H](Cc1ccc(O)cc1)N1C[C@H](Cc2ccccc2)NC1=N" please.
### Response 5.46

### Prompt Subsequent entry: "Cc1cc(O)cc(C)c1C[C@@H](CN1C(=N)NC[C@@H]1Cc1ccccc1)N1C[C@H](Cc2ccccc2)NC1=N"
### Response 5.91

### Prompt Another compound: "Cc1cc(O)cc(C)c1C[C@H]1CN([C@@H](CC(C)C)CN2C(=N)NC[C@@H]2Cc2c(C)cc(O)cc2C)C(=N)N1"
### Response 6.51

### Prompt // query: "Cc1cc(O)cc(C)c1C[C@@H](CN1C(=N)NC[C@@H]1Cc1ccc(O)cc1)N1C[C@H](Cc2ccccc2)NC1=N"
### Response 5.84

### Prompt Here is the next compound: "Cc1cc(O)cc(C)c1C[C@H]1CN([C@@H](CC(C)C)CN2C(=N)NC[C@@H]2Cc2ccc(O)cc2)C(=N)N1"
### Response 6.08

### Prompt Let us now turn to "CC(C)C[C@@H](CN1C(=N)NC[C@@H]1Cc1ccc(O)cc1)N1C[C@H](Cc2ccccc2)NC1=N"
### Response 5.18

### Prompt What would you report for "Cc1cc(O)cc(C)c1C[C@@H](CN1C(=N)NC[C@@H]1Cc1ccccc1)N1C[C@H](CC(C)C)NC1=N" ?
### Response 6.25

### Prompt Also need "CC(C)C[C@H]1CN([C@@H](Cc2ccccc2)CN2C(=N)NC[C@@H]2Cc2ccccc2)C(=N)N1" , thanks.
### Response 5.35
